# System: CYP450 isoenzymes 1A2, 2B6, 2C8, 2C9, 2C19, 2D6, 2J2, 3A4 and 3A5 (except 3A4 BOMCC)
# assayComment: P450 profiling with Vivid substrates
# Assay type: in vitro ADME
# runParameters: human, probe Vivid substrates; isoenzymes recommended for testing by FDA guidance except 3A4 BOMCC; 500 nM highest tested concentration
pIC50: −log10 of the molar value.
parameter: pIC50

IN: Bench note: what pIC50 did COc1ccc2c(c1)[C@]1(C[C@H]1c1ccc3c(/C=C/c4ccc(CN5C[C@@H](C)O[C@@H](C)C5)cc4)n[nH]c3c1)C(=O)N2 show?
OUT: < 6.30

----------
# assayComment: Brain to plasma ratio (B:P)
# Assay type: in vivo
# runParameters: male, CD-1, mouse, brain and plasma, po, 7.5 mg/kg, fasted male CD-1 mice, 4 hours post-dose, average
parameter: Kp at 4 h

IN: Bench note: what Kp at 4 h did COc1ccc2c(c1)[C@]1(C[C@H]1c1ccc3c(/C=C/c4ccc(CN5C[C@@H](C)O[C@@H](C)C5)cc4)n[nH]c3c1)C(=O)N2 [CFI-400945] show?
OUT: ~0.08

src = patent US11197863B2
